FYI, the data here is from the supplement of paper PMC9732359.

Listed below: protein stability index values for each entry.
# Assay explanation: protein stability index of a GFP-peptide fusion (yeast GPS) (PSI 1-4); higher = more stable; sorted into four equal gates, so the index is relative within each strain
# Setup conditions: ubr1∆
No unit in the answer, only the number.

# example entries with known answers
biosequence="VSEVAKIMQEATQSGGV [PRE8]" readout_kind="protein stability index" endpoint_value=3.05
biosequence="IVDPTAEQLKISLSVHT [RRP46]" readout_kind="protein stability index" endpoint_value=2.04

Provide one value: measured protein stability index of EQWITIESQMRDLILTE [PRP8] 3.14

Note protein stability index for the sequence shown: YGNPTSKESWRYDWYQP [RTT102] 2.03

====

Form field: protein stability index (one value per entry).
# Assay explanation: protein stability index of a GFP-peptide fusion (yeast GPS) (PSI 1-4); higher = more stable; sorted into four equal gates, so the index is relative within each strain
# Setup conditions: ubr1∆
Please give the numeric answer without any surrounding text.

Some sequences with recorded protein stability index:
biosequence="LNVTPSKRPQLGEIPNP [SIR4]" endpoint_value=2.88
biosequence="TQAAEFLSPYISTHLKT [IRR1]" endpoint_value=2.21
biosequence="TTAVEDEDDDLDEDDVN [RPB4]" endpoint_value=3.3

// next item, protein stability index requested
Please indicate protein stability index recorded for DDSSSDNDSLTDLESLS [SIR4] 2.95

====

Each entry below lists one item and its recorded protein stability index value.
# Assay explanation: protein stability index of a GFP-peptide fusion (yeast GPS) (PSI 1-4); higher = more stable; sorted into four equal gates, so the index is relative within each strain
# Setup conditions: ubr1∆
Answer as a number with no unit attached.

Below are worked cases with known answers.
biosequence="TVVQVYDNGQVFPSSIL [RPP0]" endpoint_value=1.29
biosequence="KPQLKFKSPIDNSESHP [RRP6]" endpoint_value=3.12
biosequence="HLELYTSQYGTPSTETA [PRE3]" endpoint_value=1.64
biosequence="EEIEPKLEKLRNEKRMF [SMC2]" endpoint_value=3.21
biosequence="IFKDLVTVFLFMLILAL [COB]" endpoint_value=1.17

Quickly give me recorded protein stability index for QQQQQQQQQQQHIYPSS [GAL11] 2.81

For the sequence MQANKLDSQETPSTEES [SWI3] , give its reported protein stability index. 2.36

====

# Assay explanation: protein stability index of a GFP-peptide fusion (yeast GPS) (PSI 1-4); higher = more stable; sorted into four equal gates, so the index is relative within each strain
# Setup conditions: ubr1∆
The threshold is inclusive: protein stability index of exactly 3 counts as Fulfilled; values below receive Not fulfilled.

Illustrative cases are given below, each with its answer.
biosequence="NNVVINFKDMSHVNKYG [PRP8]" discrete_label="Not fulfilled"
biosequence="LKRYCCRRMILTHVDLI [RPB10]" discrete_label="Not fulfilled"
biosequence="RLIDLSGCENITDKTIE [GRR1]" discrete_label="Not fulfilled"
biosequence="ECADLWPRVASNSGVVV [RPL23A]" discrete_label=Fulfilled
biosequence="VSADDFVEEQNVYVLPK [PRP8]" discrete_label=Fulfilled

Could you verify whether the entry ENSGKEMDEKSYEKNED [LIN1] shows protein stability index of no less than 3? Fulfilled

Kindly determine if protein stability index recorded for EKNEKEREIKRRKFDPS [UBP6] is above or exactly 3. Fulfilled

Please indicate if the recorded protein stability index for LLTNFHGMDFTTDKLRS [RPS1A] meets or exceeds 3. Not fulfilled

Determine whether this sequence has protein stability index no lower than 3: LPGKVNTKEEFAAAPND [SNF5] Not fulfilled

Form field: protein stability index at least 3? Entry: YVTKPMVNESDGVTHAL [RPB2] Fulfilled

Kindly determine if protein stability index recorded for PTVDEQRQYKVQLLLHI [SNF11] is above or exactly 3. Not fulfilled

Please indicate if the recorded protein stability index for KRKYLDIPIDEMTLPTS [SSN2] meets or exceeds 3. Fulfilled

Exam item: decide whether the reported protein stability index for ELRYQSHILNSHSLALN [DSN1] is at least 3. Not fulfilled
